Examples of compounds with documented % Inhibition of E1-STS activity in MCF-7 cells follow.
- Target desc: UniProtKB P08842
- Sequence (P08842 22-583): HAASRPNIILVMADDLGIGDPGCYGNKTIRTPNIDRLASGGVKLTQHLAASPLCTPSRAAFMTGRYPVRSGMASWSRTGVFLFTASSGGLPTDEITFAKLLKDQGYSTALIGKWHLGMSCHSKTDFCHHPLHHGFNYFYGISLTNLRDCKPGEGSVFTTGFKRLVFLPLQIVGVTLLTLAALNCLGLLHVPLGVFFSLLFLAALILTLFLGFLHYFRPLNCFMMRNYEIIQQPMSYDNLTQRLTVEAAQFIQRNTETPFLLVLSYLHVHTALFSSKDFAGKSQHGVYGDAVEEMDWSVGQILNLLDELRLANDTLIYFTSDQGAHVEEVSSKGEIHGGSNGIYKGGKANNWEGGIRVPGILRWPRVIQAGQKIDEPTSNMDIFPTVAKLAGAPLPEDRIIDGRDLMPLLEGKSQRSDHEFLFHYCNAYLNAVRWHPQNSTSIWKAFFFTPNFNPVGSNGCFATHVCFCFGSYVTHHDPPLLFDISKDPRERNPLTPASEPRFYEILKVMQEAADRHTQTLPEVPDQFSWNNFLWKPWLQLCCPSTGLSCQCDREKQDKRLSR
- Assay explanation: Inhibition of steroid sulphatase (E1-STS) activity in intact MCF-7 breast cancer cells
- Type: cell-based
- Test context: 1 μM
Value type: % Inhibition of E1-STS activity in MCF-7 cells (%)

1. NS(=O)(=O)Oc1cccc(C(=O)c2cccc(OS(N)(=O)=O)c2)c1 [Compound 28, Benzophenone-3,3′-O,O-bis-sulphamate]; 98.4
2. NS(=O)(=O)Oc1ccc(Cc2ccc(O)cc2)cc1; 39.3
3. NS(=O)(=O)Oc1ccc(C(=O)c2ccc(OS(N)(=O)=O)cc2)cc1 [Compound 3, Benzophenone-4,4′-O,O-bis-sulphamate]; 95.64
4. NS(=O)(=O)Oc1ccc2c3c(oc2c1)C(=O)c1ccccc1C3=O; 93.9
5. NS(=O)(=O)Oc1ccc(C23CC4CC(CC(c5ccc(O)cc5)(C4)C2)C3)cc1; 16.3
6. NS(=O)(=O)Oc1ccc(S(=O)(=O)c2ccc(OS(N)(=O)=O)cc2)cc1; 50.6
7. NS(=O)(=O)Oc1ccc(Sc2ccc(OS(N)(=O)=O)cc2)cc1 [Compound 15, Thiodiphenyl-4,4′O,O-bis-sulphamate]; 96.6
8. NS(=O)(=O)Oc1ccc2oc3ccccc3c2c1 [Compound 9, Dibenzofuran-2-O-sulphamate]; 67.9
9. NS(=O)(=O)Oc1ccc2c(c1)C(=O)c1ccc(O)cc1C2=O [Compound 11, 2-hydroxyanthraquinone-6-O-sulphamate]; 94.5
10. NS(=O)(=O)Oc1ccc(C23CC4CC(C2)CC(c2ccc(OS(N)(=O)=O)cc2)(C4)C3)cc1; 32.7
11. NS(=O)(=O)Oc1ccc(C(=O)c2ccc(O)cc2)cc1 [Compound 5, 4′-Hydroxybenzophenone-4-O-sulphamate]; 83.8
12. NS(=O)(=O)Oc1ccc2c(c1)C(=O)c1ccc(OS(N)(=O)=O)cc1C2=O [Compound 10, Anthraquinone-2,6-O,O-bis-sulphamate]; 98.6
13. NS(=O)(=O)Oc1ccc(C=CC(=O)c2ccccc2)cc1 [Compound 7, Chalcone-4-O-sulphamate]; 24.34
14. NS(=O)(=O)Oc1cccc(C(=O)c2cccc(O)c2)c1 [Compound 29, 3′-hydroxybenzophenone-3-O-sulphamate]; 30.7
15. NS(=O)(=O)Oc1ccc(Cc2ccc(OS(N)(=O)=O)cc2)cc1; 50.01

The values you see were collected from patent US20060281719A1.
